- Test system: Plasmodium berghei
- assay-comment: Antiparasitic activity against Plasmodium berghei ANKA infected BALB/c mice (Mus musculus) after 18 hrs as reduced hemoglobin proteolysis
- Assay type: functional
measured-property: inhibition (INH)
Write the numeric value and append its unit.

**Q:** Give its inhibition (INH) value. Item: CC(=O)N[C@@H](CC(C)C)C(=O)N[C@@H](CC(C)C)C(=O)N[C@H](C=O)CCCNC(=N)N
**A:** 89.06%

----------
Readings of inhibition (INH) for the listed molecules
- Tested on: Plasmodium berghei
- assay-comment: Antiparasitic activity against Plasmodium berghei ANKA infected BALB/c mice (Mus musculus) after 18 hrs as reduced hemoglobin proteolysis
- Format: functional
API: value field is a number in %; no unit string.

Below are worked cases with known answers.
| smiles-entry | experimental-target | measured |
| --- | --- | --- |
| CCOC(=O)c1sc2c(c1N)S(=O)(=O)c1cc(Cl)ccc1N2c1cc(C)ccc1C | Plasmodium berghei | 0 |
| CCOC(=O)c1sc2c(c1N)S(=O)(=O)c1cc(Cl)ccc1N2c1ccc(Cl)cc1 | Plasmodium berghei | 0 |
| CCOC(=O)c1sc2c(c1N)S(=O)(=O)c1cc(Cl)ccc1N2c1ccc(Cl)c(Cl)c1 | Plasmodium berghei | 0 |
| CCOC(=O)c1sc2c(c1N)S(=O)(=O)c1ccc(Cl)cc1N2c1ccc(Cl)cc1 | Plasmodium berghei | 0 |
| CCOC(=O)c1sc2c(c1N)S(=O)(=O)c1cc(Cl)ccc1N2c1ccccc1 | Plasmodium berghei | 0 |

**Q:** Please state recorded inhibition (INH) (tested on Plasmodium berghei) of CCOC(=O)c1sc2c(c1N)S(=O)(=O)c1ccc(Cl)cc1N2c1ccccc1C
**A:** 74.36

**Q:** Item: CCOC(=O)c1sc2c(c1N)S(=O)(=O)c1ccc(Cl)cc1N2c1ccc(C)cc1
**A:** 64.98

**Q:** For CCOC(=O)c1sc2c(c1N)S(=O)(=O)c1ccc(Cl)cc1N2c1cccc(OC)c1 then?
**A:** 55.96

----------
Catalogue of inhibition (INH) values
- Tested on: Plasmodium berghei
- assay-comment: Antiparasitic activity against Plasmodium berghei ANKA infected BALB/c mice (Mus musculus) after 18 hrs as reduced hemoglobin proteolysis
- Type: functional
Hi! Could you send only the number? It should be in %, unit omitted.

Here are 3 compounds together with their reported answers.
| compound | inhibition (INH) / % |
| --- | --- |
| CCOC(=O)c1sc2c(c1N)S(=O)(=O)c1cc(Cl)ccc1N2c1cccc(Cl)c1 | 0 |
| CCN(CC)CCCC(C)Nc1ccnc2cc(Cl)ccc12 (centres undefined) | 24.12 |
| CCOC(=O)c1sc2c(c1N)S(=O)(=O)c1ccc(Cl)cc1N2c1cc(C)ccc1C | 76.81 |

**Q:** Endpoint output: inhibition (INH) of CCOC(=O)c1sc2c(c1N)S(=O)(=O)c1cc(Cl)ccc1N2c1ccc(C)cc1 . Value?
**A:** 0
